Target: phosphodiesterase 5 (Homo sapiens, UniProt O76074)
Construct: The thrombocytes are lysed by ultrasound and used in the PDE 5 assay
Assay: PDE 5 activity in enzyme preparations from human thrombocytes
Conditions: human thrombocyte enzyme, 0.5 μM [3H]cGMP; read-out: IC50, inhibition of phosphodiesterase 5
Assay endpoint: IC50 (nM)

// worked examples, IC50 included
{"columns": ["Compound", "Assay target", "IC50, nM"],
 "data": [
  ["CCc1nc(C)c2c(=O)n(Cc3ccc(OC)cc3)c3ccc(OC)nc3n12 [Example 7]", "phosphodiesterase 5 (Homo sapiens, UniProt O76074)", 104],
  ["CCc1nc(C)c2c(=O)n(Cc3c(F)cccc3Cl)c3ccc(OC)nc3n12 [Example 11]", "phosphodiesterase 5 (Homo sapiens, UniProt O76074)", 19],
  ["CCc1nc(C)c2c(=O)n(Cc3c(F)ccc(F)c3F)c3ccc(OC)nc3n12 [Example 13]", "phosphodiesterase 5 (Homo sapiens, UniProt O76074)", 16],
  ["CCCc1nc(C)c2c(=O)n(Cc3c(F)cccc3F)c3ccc(OC)nc3n12 [Example 15]", "phosphodiesterase 5 (Homo sapiens, UniProt O76074)", 2]
]}

(1) CCc1nc(C)c2c(=O)n(Cc3ccccc3)c3ccc(OC)nc3n12 [Example 2]
(2) CCc1nc(C)c2c(=O)n(Cc3ccc(Cl)cc3)c3ccc(OC)nc3n12 [Example 9]
stdin: Input pair: 1 , 2 . Output: entry with lower IC50. Please indicate the selected item by its label.
stdout: 2
(2: 112 nM, 1: 203 nM)

----------
Biological target: phosphodiesterase 5 (Homo sapiens, UniProt O76074)
Construct: The thrombocytes are lysed by ultrasound and used in the PDE 5 assay
Test: PDE 5 activity in enzyme preparations from human thrombocytes
Settings: human thrombocyte enzyme, 0.5 μM [3H]cGMP; read-out: IC50, inhibition of phosphodiesterase 5
Assay endpoint: IC50 (µM)

{"columns": ["Molecular string", "Unit symbol", "Measured number"],
 "data": [
  ["CCc1nc(C)c2c(=O)n(Cc3ccc(F)cc3)c3ccc(OC)nc3n12", "µM", 0.126]
]}

(P) CCc1nc(C)c2c(=O)n(Cc3ccccc3F)c3ccc(OC)nc3n12
(Q) CCc1nc(C)c2c(=O)n(Cc3c(F)cccc3F)c3ccc(OC)nc3n12
stdin: Input pair: P , Q . Output: entry with lower IC50. Please indicate the selected item by its label.
stdout: Q
(Q: 0.038 µM, P: 0.059 µM)

(I) CCCc1nc(C)c2c(=O)n(Cc3c(F)ccc(F)c3F)c3ccc(OC)nc3n12
(II) CCCc1nc(C)c2c(=O)n(Cc3c(F)cccc3Cl)c3ccc(OC)nc3n12
stdin: Input pair: I , II . Output: entry with lower IC50. Please indicate the selected item by its label.
stdout: I
(I: 0.005 µM, II: 0.008 µM)

----------
Below is a list of entries, each paired with its recorded melting point value.

stdin: Could you tell me which melting point is on file for CCc1nc(C)c2c(=O)n(Cc3ccccc3)c3ccc(OC)nc3n12 [Example 2] ?
stdout: 166 to 167 °C

stdin: How about this molecule: CCCc1nc(C)c2c(=O)n(Cc3c(F)ccc(F)c3F)c3ccc(OC)nc3n12 [Example 16]
stdout: 197 to 199 °C

stdin: How about this molecule: CCCc1nc(C)c2c(=O)n(Cc3c(F)cccc3F)c3ccc(OC)nc3n12 [Example 15]
stdout: 171 to 172 °C

stdin: How about this molecule: CCc1nc(C)c2c(=O)n(Cc3ccc(Cl)cc3)c3ccc(OC)nc3n12 [Example 9]
stdout: 201 to 202 °C

stdin: How about this molecule: CCc1nc(C)c2c(=O)n(Cc3ccc(OC)cc3)c3ccc(OC)nc3n12 [Example 7]
stdout: 156 to 158 °C

stdin: How about this molecule: CCc1nc(C)c2c(=O)n(Cc3c(F)ccc(F)c3F)c3ccc(OC)nc3n12 [Example 13]
stdout: 183 to 185 °C

stdin: How about this molecule: CCc1nc(C)c2c(=O)n(Cc3c(F)cccc3Cl)c3ccc(OC)nc3n12 [Example 11]
stdout: 197 to 200 °C

stdin: How about this molecule: CCc1nc(C)c2c(=O)n(Cc3ccc(F)cc3)c3ccc(OC)nc3n12 [Example 8]
stdout: 189 to 191 °C

stdin: How about this molecule: CCc1nc(C)c2c(=O)n(Cc3c(F)cccc3F)c3ccc(OC)nc3n12 [Example 12]
stdout: 177 to 180 °C

stdin: How about this molecule: CCc1nc(C)c2c(=O)n(Cc3ccccc3F)c3ccc(OC)nc3n12 [Example 5]
stdout: 186 to 187 °C

stdin: How about this molecule: CCCc1nc(C)c2c(=O)n(Cc3c(F)cccc3Cl)c3ccc(OC)nc3n12 [Example 14]
stdout: 159 to 162 °C
